target: A2A adenosine receptor (UniProt P29274)
READOUT TYPE: Ki (nM)

In the examples that follow, each entry is paired with its recorded Ki.
Cc1c(C2=NC[C@@H](C)O2)sc2c1c(=O)n(CC(C)C)c(=O)n2C :: 450
CCn1c(=O)[nH]c2sc(-c3cnn(Cc4ccccc4)c3)c(C)c2c1=O :: 752

(P) Cc1c(-c2ccco2)sc2[nH]c(=O)n(C)c(=O)c12
(Q) CCn1c(=O)n(CC(C)C)c(=O)c2c(C)c(-c3ccco3)sc21
(Q) Of the two listed items, P and Q , which carries the larger Ki figure? Answer = label.
(A) Q

---

What follows is a collection of pKi values obtained with A2A adenosine receptor (UniProt P29274).
pKi: −log10 of the molar value.
READOUT TYPE: pKi

CCn1c(=O)[nH]c2sc3c(c2c1=O)CCCC3 [XI] :: 6.34

(a) CCn1c(=O)[nH]c2sc(-c3ccc[nH]3)c(C)c2c1=O [XXVII]
(b) Cc1c(-c2ncco2)sc2[nH]c(=O)n(CC(C)C)c(=O)c12 [XXIX]
(c) CCn1c(=O)c2c(C)c(-c3ccoc3)sc2n(C)c1=O [XLVI]
(Q) Order these by pKi, descending, and give the full ranking. Would you mind listing the labels in the order requested?
(A) b, a, c
(b: 7.12, a: 6.74, c: 6.26)
